A collection of molecules and their measured pIC50
# targetOrTestSystem: human ACC2 (Homo sapiens (Human), UniProt O00763)
# Sequence (O00763 129-2458): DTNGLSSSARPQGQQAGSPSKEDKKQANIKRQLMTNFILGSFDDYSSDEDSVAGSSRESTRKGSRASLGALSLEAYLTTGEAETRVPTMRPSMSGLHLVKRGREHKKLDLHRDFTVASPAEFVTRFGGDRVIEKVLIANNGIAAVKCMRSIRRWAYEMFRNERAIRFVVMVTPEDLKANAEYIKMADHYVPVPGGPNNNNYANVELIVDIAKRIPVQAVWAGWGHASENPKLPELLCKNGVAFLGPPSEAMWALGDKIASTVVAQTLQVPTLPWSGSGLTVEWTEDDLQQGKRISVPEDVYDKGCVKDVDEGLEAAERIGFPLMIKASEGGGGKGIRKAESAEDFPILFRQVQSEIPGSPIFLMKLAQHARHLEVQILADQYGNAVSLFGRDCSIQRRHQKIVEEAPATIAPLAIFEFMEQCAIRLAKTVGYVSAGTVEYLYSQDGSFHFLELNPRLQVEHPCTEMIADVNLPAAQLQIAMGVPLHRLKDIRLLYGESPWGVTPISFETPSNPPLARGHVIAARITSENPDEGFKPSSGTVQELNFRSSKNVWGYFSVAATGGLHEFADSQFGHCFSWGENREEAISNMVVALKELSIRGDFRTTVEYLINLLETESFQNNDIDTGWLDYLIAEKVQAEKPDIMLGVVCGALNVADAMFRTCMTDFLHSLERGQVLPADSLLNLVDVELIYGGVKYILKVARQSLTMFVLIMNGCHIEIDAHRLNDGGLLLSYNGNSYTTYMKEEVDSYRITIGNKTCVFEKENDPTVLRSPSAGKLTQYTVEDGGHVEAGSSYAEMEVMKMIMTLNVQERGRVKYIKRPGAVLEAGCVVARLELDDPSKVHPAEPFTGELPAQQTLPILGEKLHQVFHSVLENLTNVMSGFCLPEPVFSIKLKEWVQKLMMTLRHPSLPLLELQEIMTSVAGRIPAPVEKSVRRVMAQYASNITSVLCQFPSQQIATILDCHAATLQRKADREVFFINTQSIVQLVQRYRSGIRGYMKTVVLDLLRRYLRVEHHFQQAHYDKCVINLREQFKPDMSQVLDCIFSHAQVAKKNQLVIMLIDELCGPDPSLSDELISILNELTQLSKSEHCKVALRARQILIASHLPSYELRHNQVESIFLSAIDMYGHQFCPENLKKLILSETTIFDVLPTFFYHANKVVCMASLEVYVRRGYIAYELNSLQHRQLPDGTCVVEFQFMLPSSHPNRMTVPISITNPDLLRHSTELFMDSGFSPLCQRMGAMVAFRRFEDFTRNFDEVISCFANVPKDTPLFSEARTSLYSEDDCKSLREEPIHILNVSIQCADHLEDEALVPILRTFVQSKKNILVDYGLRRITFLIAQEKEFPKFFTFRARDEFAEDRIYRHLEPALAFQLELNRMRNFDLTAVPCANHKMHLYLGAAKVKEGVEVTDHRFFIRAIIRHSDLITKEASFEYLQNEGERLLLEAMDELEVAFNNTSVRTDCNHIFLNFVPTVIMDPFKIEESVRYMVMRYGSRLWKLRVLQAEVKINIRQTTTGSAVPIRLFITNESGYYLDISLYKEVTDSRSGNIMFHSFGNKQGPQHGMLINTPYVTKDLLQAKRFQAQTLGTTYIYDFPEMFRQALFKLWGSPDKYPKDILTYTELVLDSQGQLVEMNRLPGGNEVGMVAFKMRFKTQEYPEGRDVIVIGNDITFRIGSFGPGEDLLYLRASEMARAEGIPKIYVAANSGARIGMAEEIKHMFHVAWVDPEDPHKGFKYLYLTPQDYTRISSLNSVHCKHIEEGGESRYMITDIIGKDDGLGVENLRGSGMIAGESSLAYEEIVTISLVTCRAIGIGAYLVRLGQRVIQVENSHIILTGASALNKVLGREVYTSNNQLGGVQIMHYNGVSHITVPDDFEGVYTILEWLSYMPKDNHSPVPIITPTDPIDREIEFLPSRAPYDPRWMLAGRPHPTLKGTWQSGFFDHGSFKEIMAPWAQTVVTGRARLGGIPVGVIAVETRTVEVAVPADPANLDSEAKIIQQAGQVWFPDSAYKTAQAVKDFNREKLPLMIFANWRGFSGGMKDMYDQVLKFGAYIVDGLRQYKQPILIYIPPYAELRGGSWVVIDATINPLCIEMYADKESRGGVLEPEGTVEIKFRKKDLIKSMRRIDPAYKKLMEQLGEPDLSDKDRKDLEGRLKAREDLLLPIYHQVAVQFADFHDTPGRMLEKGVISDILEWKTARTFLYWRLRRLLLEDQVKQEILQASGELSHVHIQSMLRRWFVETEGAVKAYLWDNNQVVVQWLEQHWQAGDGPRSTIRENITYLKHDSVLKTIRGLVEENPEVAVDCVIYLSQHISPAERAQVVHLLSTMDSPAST
pIC50: −log10 of the molar value.
property: pIC50

CNC(=O)C(C)c1ccc(O[C@@H]2CCN(c3ccc(OCC4CC4(F)F)cn3)C2)cc1 (stereo partly shown) [Example 1.28]: 6.46
CCCNc1ncnc(N2CC[C@@H](Oc3ccc(C(C)C(=O)NC4CC4C)cc3)C2)c1F (stereo partly shown) [Example 3.9]: 6.13
CC(C(=O)NC1CC1C)c1ccc(O[C@@H]2CCN(c3ncnc(OCC(C)(C)O)c3Cl)C2)cc1 (single isomer, unassigned) [6.4 isomer 3]: 6.90
CCNC(=O)C(C)c1ccc(O[C@@H]2CCN(c3ncnc(OCC(C)(C)O)c3Cl)C2)cc1 (single isomer, unassigned) [6.3 isomer 1]: 7.02

====

pIC50: −log10 of the molar value.
As an illustration, consider measured pIC50 for compounds on human ACC2 (Homo sapiens (Human), UniProt O00763).
property: pIC50

CC(C(=O)NC1CCC1)c1ccc(O[C@@H]2CCN(c3ccc(OCC4CC4(F)F)cn3)C2)cc1 (stereo partly shown): 6.03
CCCNc1nccc(N2CC[C@@H](Oc3ccc(C(C)C(=O)N[C@H](C)CC)cc3)C2)c1F (stereo partly shown): 6.44
CC(C(=O)NC1COC1)c1ccc(O[C@@H]2CCN(c3nc(N(C)C)ncc3F)C2)cc1 (stereo partly shown): 6.14
C=C(C)CNC(=O)C(C)c1ccc(O[C@@H]2CCN(c3ccnc(NCCC)c3F)C2)cc1 (stereo partly shown): 6.54
CC(C(=O)NC1CC1C)c1ccc(O[C@@H]2CCN(c3ncnc(OCC(C)(F)F)c3F)C2)cc1 (stereo partly shown): 6.51
CCCNc1nccc(N2CC[C@@H](Oc3ccc(C(C)C(=O)NC4CC4C)cc3)C2)c1F (single isomer, unassigned): 7.00
CC(C(=O)NC1CC1C)c1ccc(O[C@@H]2CCN(c3ncnc(OCC(C)(C)O)c3Cl)C2)cc1 (single isomer, unassigned) [6.4 isomer 1]: 6.92

====

# targetOrTestSystem: human ACC2 (Homo sapiens (Human), UniProt O00763)
property: IC50 (nM)

CCCNc1nccc(N2CC[C@@H](Oc3ccc(C(C)C(=O)Nc4cccnc4)cc3)C2)c1F (stereo partly drawn) [Example 1.35]: 410
CCCNc1ncnc(N2CC[C@@H](Oc3ccc(C(C)C(=O)NC4CC4)cc3)C2)c1F (stereo partly drawn) [Example 3.3]: 280
CC(C(=O)NC1CC1C)c1ccc(O[C@@H]2CCN(c3nc(N(C)C)ncc3F)C2)cc1 (single isomer, unassigned) [6.2 isomer 2]: 177
CCNC(=O)C(C)c1ccc(O[C@@H]2CCN(c3ncc(OC4CCCC4)cc3F)C2)cc1 (stereo partly drawn) [Example 8.1]: 104
CC(C(=O)Nc1cncnc1)c1ccc(O[C@@H]2CCN(c3ccc(OCC4CC4(F)F)cn3)C2)cc1 (stereo partly drawn) [Example 1.70]: 749
CC(CO)NC(=O)C(C)c1ccc(O[C@@H]2CCN(c3nc(N(C)C)ncc3F)C2)cc1 (stereo partly drawn) [Example 1.77]: 849
CCNC(=O)C(C)c1ccc(O[C@@H]2CCN(c3ccc(OC(C)CC)cc3)C2)cc1 (stereo partly drawn) [Example 7.14]: 407
CCCNc1nccc(N2CC[C@@H](Oc3ccc(C(C)C(=O)NCC)cc3)C2)c1F (stereo partly drawn) [Example 1.11]: 213
CCNC(=O)C(C)c1ccc(O[C@@H]2CCN(c3nc(N(C)C)ncc3F)C2)cc1 (single isomer, unassigned) [6.6 isomer 1]: 126
CC(C(=O)NCC(F)F)c1ccc(O[C@@H]2CCN(c3ncnc(OCC(C)(C)O)c3Cl)C2)cc1 (stereo partly drawn) [Example 1.36]: 413
CCNC(=O)C(C)c1ccc(O[C@@H]2CCN(c3ncnc(OCC(C)(C)O)c3Cl)C2)cc1 (single isomer, unassigned) [6.3 isomer 2]: 1100
CCNC(=O)C(C)c1ccc(O[C@@H]2CCN(c3cc(C(F)(F)F)ccc3C)C2)cc1 (stereo partly drawn) [Example 7.11]: 365
C#CCNC(=O)C(C)c1ccc(O[C@@H]2CCN(c3ncnc(OCC(C)(C)O)c3Cl)C2)cc1 (stereo partly drawn) [Example 1.20]: 306
CC(C)NC(=O)C(C)c1ccc(O[C@@H]2CCN(c3ccc(OCC4CC4(F)F)cn3)C2)cc1 (stereo partly drawn) [Example 1.63]: 652
CCNC(=O)C(C)c1ccc(O[C@@H]2CCN(c3ccnc(N4CCC(F)(F)C4)n3)C2)cc1 (stereo partly drawn) [Example 2.4]: 399
CCNC(=O)C(C)c1ccc(O[C@@H]2CCN(c3ccc(OC(C)C)cc3)C2)cc1 (stereo partly drawn) [Example 7.22]: 455
C=CCCNC(=O)C(C)c1ccc(O[C@@H]2CCN(c3ccnc(NCCC)c3F)C2)cc1 (stereo partly drawn) [Example 1.71]: 779
CC(C(=O)NC1CC1C)c1ccc(O[C@@H]2CCN(c3nc(N(C)C)ncc3F)C2)cc1 (single isomer, unassigned) [6.2 isomer 3]: 219
CCCNC(=O)C(C)c1ccc(O[C@@H]2CCN(c3ncnc(OCC(C)(C)O)c3Cl)C2)cc1 (stereo partly drawn) [Example 1.40]: 437
CC(C)NC(=O)C(C)c1ccc(O[C@@H]2CCN(c3ncnc(OCC(C)(F)F)c3F)C2)cc1 (stereo partly drawn) [Example 1.80]: 907
CCNC(=O)C(C)c1ccc(O[C@@H]2CCN(c3ncnc(OCC(C)(C)O)c3Cl)C2)cc1 (stereo partly drawn) [Example 1.17]: 272
CCNC(=O)C(C)c1ccc(O[C@@H]2CCN(c3ccc(F)c(Cl)c3)C2)cc1 (stereo partly drawn) [Example 7.31]: 639
CCCNc1nccc(N2CC[C@@H](Oc3ccc(C(C)C(=O)NC4COC4)cc3)C2)c1F (stereo partly drawn) [Example 1.61]: 626
CC(C(=O)Nc1cccnc1)c1ccc(O[C@@H]2CCN(c3nc(N(C)C)ncc3F)C2)cc1 (stereo partly drawn) [Example 3.6]: 352
CC(C(=O)NC[C@@H](C)O)c1ccc(O[C@@H]2CCN(c3ccc(OCC4CC4(F)F)cn3)C2)cc1 (stereo partly drawn) [Example 1.88]: 1780
CC(C)NC(=O)C(C)c1ccc(O[C@@H]2CCN(c3ncnc(OCC(C)(C)O)c3Cl)C2)cc1 (stereo partly drawn) [Example 1.49]: 492
CC(C(=O)NCC(F)F)c1ccc(O[C@@H]2CCN(c3ncnc(OCC(C)(F)F)c3F)C2)cc1 (stereo partly drawn) [Example 1.46]: 470
CCCNc1nccc(N2CC[C@@H](Oc3ccc(C(C)C(=O)NC4CCC4)cc3)C2)c1F (stereo partly drawn) [Example 1.41]: 438
CC(C(=O)NCC1COC1)c1ccc(O[C@@H]2CCN(c3ncnc(OCC(C)(C)O)c3Cl)C2)cc1 (stereo partly drawn) [Example 1.85]: 1220
CCNC(=O)C(C)c1ccc(O[C@@H]2CCN(c3cccc(C(F)F)n3)C2)cc1 (stereo partly drawn) [Example 7.15]: 408

Data provenance is patent US9278954B2.
